studySystem: Protein farnesyltransferase subunit beta (Homo sapiens, UniProt P49356)
Sequence (P49356 whole entry): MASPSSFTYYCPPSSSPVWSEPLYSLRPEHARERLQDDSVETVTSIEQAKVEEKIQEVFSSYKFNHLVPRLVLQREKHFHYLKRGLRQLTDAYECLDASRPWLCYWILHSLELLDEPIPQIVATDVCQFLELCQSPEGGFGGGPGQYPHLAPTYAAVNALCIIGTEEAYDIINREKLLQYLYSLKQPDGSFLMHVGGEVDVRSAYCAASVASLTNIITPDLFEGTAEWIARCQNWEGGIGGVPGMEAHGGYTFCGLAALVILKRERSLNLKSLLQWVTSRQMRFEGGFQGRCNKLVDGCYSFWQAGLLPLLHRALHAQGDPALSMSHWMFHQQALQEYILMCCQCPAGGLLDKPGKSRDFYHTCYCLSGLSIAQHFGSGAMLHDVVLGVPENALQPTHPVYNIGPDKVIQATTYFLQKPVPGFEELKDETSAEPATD
testDetails: Displacement of (1-(2-aminoethyl)-3,5-dimethyl-1H-pyrazol-4-yl)(4-((1-neopentyl-1H-benzo[d]imidazol-2-yl)methyl)piperazin-1-yl)methanone from FNTB in vorinostat-stimulated human Jurkat 2C4 cells infected with latent HIV-1 by pull-down experiment based competitive binding assay
propertyLabel: pKd
Worth noting: pKd values are minus log10 of concentrations stated in mol/L.

IN: Please give the measured pKd for this compound: Cc1nn(C)c(C)c1C(=O)N1CCN(Cc2nc3ccccc3n2CC(C)(C)C)CC1
OUT: 6.32

---

Tested on: Human immunodeficiency virus 1
testDetails: Potentiation of vorinostat-induced reactivation of latent HIV-1 infected in human Jurkat 2C4 cells assessed as increase in HIV-1 transcription incubated for 24 hrs in presence of vorinostat by Steady-Glo luciferase reporter gene assay
Assay type: functional, organism-based
conditionSummary: Human immunodeficiency virus 1, 2C4, 24 h
propertyLabel: EC50 (µM)
Response body: numeric value in µM, unit text excluded.

IN: Please give the measured EC50 for this compound: N#Cc1ccc(Cn2cncc2CN2CCN(c3cccc(Cl)c3)C(=O)C2)cc1 [L-778123 FREE BASE]
OUT: 0.17

IN: Please give the measured EC50 for this compound: CC(=O)NCCn1nc(C)c(C(=O)N2CCN(Cc3nc4ccccc4n3CC(C)(C)C)CC2)c1C
OUT: 1.1

IN: Please give the measured EC50 for this compound: Cc1nn(C)c(C)c1C(=O)N1CCN(Cc2nc3ccccc3n2CC(C)(C)C)CC1
OUT: 0.34
